assay text: protein stability index of a GFP-peptide fusion (yeast GPS) (PSI 1-4); higher = more stable; sorted into four equal gates, so the index is relative within each strain
measurement conditions: pdr5∆
Record y whenever protein stability index is at 3 or higher; record n when lower.

Answered examples (5):
sequence chain	label class
FNRDNKVSPAAAAKKAL [RPS26B]	n
VHPIPDVAFADGGKTLR [YMR129W/POM152]	n
SVALHRHSNALVDILPP [RPT3]	n
YLKKREAGEVKDDGAFV [RPL10]	n
ATFSVSQASSDLGETFR [CSL4]	n

Answer whether protein stability index of NSAARNIQHLLYGKRFF [PRE7] is greater than or equal to 3.
n

Can you check CHLYSQRMHAIHEIDER [NNF1] next?
n

# iterate: SNSDNCPEEFAESMCQE [SNF5]
y
